target: human serum albumin site 2 (Homo sapiens)
measurement_notes: Displacement of […] dansylsarcosine from human serum albumin site 2 in phosphate buffer at pH 7.4 at 4 uM by fluorescence spectroscopy
test_parameters: pH 7.4, probe dansylsarcosine, read-out: Activity
recorded_metric: inhibition at 4 µM (%)
Answer with a number only, understood to be in %.

Data request: What value of measured inhibition at 4 µM is listed for `O=C(O)c1ccccc1Nc1cccc(C(F)(F)F)c1` ?
Data returned: 73

====

target: human serum albumin site 2 (Homo sapiens, UniProt P02768)
measurement_notes: in vitro
test_parameters: fatty acid containing human serum albumin, pH 7.4, probe dansylsarcosine
Description: Displacement of radiolabeled dansylsarcosine from fatty acid containing human serum albumin site 2 in phosphate buffer at pH 7.4 at 12 uM by fluorescence spectroscopy
recorded_metric: inhibition at 12 µM (%)
Answer with a number only, understood to be in %.

Data request: What value of measured inhibition at 12 µM is listed for CCN(CC)CCN1C(=O)CN=C(c2ccccc2F)c2cc(Cl)ccc21 [FLURAZEPAM] ?
Data returned: 2.7

Data request: What value of measured inhibition at 12 µM is listed for O=C1CN=C(c2ccccc2Cl)c2cc([N+](=O)[O-])ccc2N1 [CLONAZEPAM] ?
Data returned: 19.5

Data request: What value of measured inhibition at 12 µM is listed for O=c1oc2ccccc2c(O)c1Cc1c(O)c2ccccc2oc1=O [DICUMAROL] ?
Data returned: 19.8

Data request: What value of measured inhibition at 12 µM is listed for Cc1cc(NC(=O)C2=C(O)c3ccccc3S(=O)(=O)N2C)no1 [ISOXICAM] ?
Data returned: 32.6

Data request: What value of measured inhibition at 12 µM is listed for N[C@@H](Cc1c[nH]c2ccccc12)C(=O)O [TRYPTOPHAN] ?
Data returned: 15.1

Data request: What value of measured inhibition at 12 µM is listed for CN1C(C(=O)Nc2ccccn2)=C(O)c2sccc2S1(=O)=O [TENOXICAM] ?
Data returned: 38.5

====

target: human serum albumin site 1 (Homo sapiens)
Sequence (P02768 whole entry): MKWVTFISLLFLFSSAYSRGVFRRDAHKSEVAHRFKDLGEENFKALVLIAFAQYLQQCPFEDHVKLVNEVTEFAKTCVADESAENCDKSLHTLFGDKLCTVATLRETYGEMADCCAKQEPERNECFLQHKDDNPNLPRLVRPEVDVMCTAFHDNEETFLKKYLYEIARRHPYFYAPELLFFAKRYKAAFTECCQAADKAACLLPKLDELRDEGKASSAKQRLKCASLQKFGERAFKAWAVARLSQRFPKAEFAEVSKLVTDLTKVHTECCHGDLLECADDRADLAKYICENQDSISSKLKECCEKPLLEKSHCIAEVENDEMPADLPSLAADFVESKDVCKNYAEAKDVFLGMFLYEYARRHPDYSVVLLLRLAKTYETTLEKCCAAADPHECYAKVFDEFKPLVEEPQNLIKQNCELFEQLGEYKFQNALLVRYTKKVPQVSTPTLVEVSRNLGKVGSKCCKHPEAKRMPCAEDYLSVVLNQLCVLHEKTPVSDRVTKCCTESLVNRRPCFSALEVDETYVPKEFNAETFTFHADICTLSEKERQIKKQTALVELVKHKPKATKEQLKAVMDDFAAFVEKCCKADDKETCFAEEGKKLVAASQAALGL
measurement_notes: in vitro
test_parameters: pH 7.4, probe warfarin
Description: Displacement of radiolabeled warfarin from human serum albumin site 1 in phosphate buffer at pH 7.4 at 100 uM by fluorescence spectroscopy
recorded_metric: inhibition at 100 µM (%)
Answer with a number only, understood to be in %.

Data request: What value of measured inhibition at 100 µM is listed for `CC(=O)Nc1nc(C)c(-c2cnc(F)c(NS(=O)(=O)c3sc(C)nc3C)c2)s1` ?
Data returned: 6

====

Give measured inhibition at 12 µM for each item. Keep answers brief.
target: human serum albumin site 2 (Homo sapiens, UniProt P02768)
measurement_notes: in vitro
test_parameters: fatty acid containing human serum albumin, pH 7.4, probe dansylsarcosine
Answer with a number only, understood to be in %.

Data request: What value of measured inhibition at 12 µM is listed for COc1ccc(Cl)cc1C(=O)NCCc1ccc(S(=O)(=O)NC(=O)NC2CCCCC2)cc1 [GLYBURIDE] ?
Data returned: 62.2

Data request: What value of measured inhibition at 12 µM is listed for NS(=O)(=O)c1cc2c(cc1Cl)N=CNS2(=O)=O [CHLOROTHIAZIDE] ?
Data returned: 18.8

Data request: What value of measured inhibition at 12 µM is listed for `O=C1NC(=O)C(c2ccccc2)(c2ccccc2)N1` ?
Data returned: 18.8

Data request: What value of measured inhibition at 12 µM is listed for CC(C)NCC(O)COc1cccc2[nH]ccc12 (centres undefined) ?
Data returned: 9.5

Data request: What value of measured inhibition at 12 µM is listed for CCCNC(=O)NS(=O)(=O)c1ccc(Cl)cc1 [CHLORPROPAMIDE] ?
Data returned: 26

Data request: What value of measured inhibition at 12 µM is listed for `COc1ccc2cc([C@H](C)C(=O)O)ccc2c1` ?
Data returned: 79.9

Data request: What value of measured inhibition at 12 µM is listed for O=C1C(CC[S+]([O-])c2ccccc2)C(=O)N(c2ccccc2)N1c1ccccc1 (centres undefined) ?
Data returned: 34.2

Data request: What value of measured inhibition at 12 µM is listed for `Cc1onc(-c2ccccc2Cl)c1C(=O)N[C@@H]1C(=O)N2[C@@H]1SC(C)(C)[C@@H]2C(=O)O` ?
Data returned: 18.1

Data request: What value of measured inhibition at 12 µM is listed for `O=C(O)CCC(=O)c1ccc(-c2ccccc2)cc1` ?
Data returned: 66.2

====

target: human serum albumin site 2 (Homo sapiens, UniProt P02768)
measurement_notes: in vitro
test_parameters: pH 7.4, probe dansylsarcosine
Description: Displacement of radiolabeled dansylsarcosine from human serum albumin site 2 in phosphate buffer at pH 7.4 at 100 uM by fluorescence spectroscopy
recorded_metric: inhibition at 100 µM (%)
Answer with a number only, understood to be in %.

Data request: What value of measured inhibition at 100 µM is listed for `CC(=O)Nc1nc(C)c(-c2cnc(F)c(NS(=O)(=O)c3sc(C)nc3C)c2)s1` ?
Data returned: 7

====

target: UniProtKB P02768
measurement_notes: Binding affinity to human serum albumin by equilibrium dialysis
Format: ADME
test_parameters: isolated protein
recorded_metric: log Ks

Data request: What value of measured log Ks is listed for CCN(CC)CCN1C(=O)CN=C(c2ccccc2F)c2cc(Cl)ccc21 [FLURAZEPAM] ?
Data returned: 3.38

Data request: What value of measured log Ks is listed for CC(C)NCC(O)COc1cccc2[nH]ccc12 (centres undefined) [PINDOLOL] ?
Data returned: 2.65

Data request: What value of measured log Ks is listed for O=C(O)c1ccccc1Nc1cccc(C(F)(F)F)c1 [FLUFENAMIC ACID] ?
Data returned: 6.68

Data request: What value of measured log Ks is listed for CN(C)c1cccc2c(S(=O)(=O)N(C)CC(=O)O)cccc12 [DANSYLSARCOSINE] ?
Data returned: 5.39

====

target: human serum albumin site 1 (Homo sapiens)
measurement_notes: in vitro
test_parameters: fatty acid-free human serum albumin, pH 7.4, probe warfarin
Description: Displacement of radiolabeled warfarin from fatty acid-free human serum albumin site 1 in phosphate buffer at pH 7.4 at 12 uM by fluorescence spectroscopy
recorded_metric: inhibition at 12 µM (%)
Answer with a number only, understood to be in %.

Data request: What value of measured inhibition at 12 µM is listed for CC(C)NCC(O)COc1cccc2[nH]ccc12 (stereo not given) [PINDOLOL] ?
Data returned: 0

Data request: What value of measured inhibition at 12 µM is listed for COc1ccc(Cl)cc1C(=O)NCCc1ccc(S(=O)(=O)NC(=O)NC2CCCCC2)cc1 [GLYBURIDE] ?
Data returned: 28.6

Data request: What value of measured inhibition at 12 µM is listed for CC/C(=C(\c1ccccc1)c1ccc(OCCN(C)C)cc1)c1ccccc1 [TAMOXIFEN] ?
Data returned: 0

Data request: What value of measured inhibition at 12 µM is listed for NS(=O)(=O)c1cc2c(cc1Cl)N=CNS2(=O)=O [CHLOROTHIAZIDE] ?
Data returned: 28.9

Data request: What value of measured inhibition at 12 µM is listed for O=C1C(CC[S+]([O-])c2ccccc2)C(=O)N(c2ccccc2)N1c1ccccc1 (stereo not given) [SULFINPYRAZONE] ?
Data returned: 35.2

Data request: What value of measured inhibition at 12 µM is listed for Cc1cc(NC(=O)C2=C(O)c3ccccc3S(=O)(=O)N2C)no1 [ISOXICAM] ?
Data returned: 51.7

Data request: What value of measured inhibition at 12 µM is listed for CN1C(C(=O)Nc2ccccn2)=C(O)c2ccccc2S1(=O)=O [PIROXICAM] ?
Data returned: 6.7

Data request: What value of measured inhibition at 12 µM is listed for O=C1CN=C(c2ccccc2Cl)c2cc([N+](=O)[O-])ccc2N1 [CLONAZEPAM] ?
Data returned: 0

Data request: What value of measured inhibition at 12 µM is listed for NS(=O)(=O)c1cc(C(=O)O)c(NCc2ccco2)cc1Cl [FUROSEMIDE] ?
Data returned: 36.2

Data request: What value of measured inhibition at 12 µM is listed for CN1C(C(=O)Nc2ccccn2)=C(O)c2sccc2S1(=O)=O [TENOXICAM] ?
Data returned: 52.3

Data request: What value of measured inhibition at 12 µM is listed for O=c1oc2ccccc2c(O)c1Cc1c(O)c2ccccc2oc1=O [DICUMAROL] ?
Data returned: 86.4

Data request: What value of measured inhibition at 12 µM is listed for Cc1onc(-c2ccccc2Cl)c1C(=O)N[C@@H]1C(=O)N2[C@@H]1SC(C)(C)[C@@H]2C(=O)O [CLOXACILLIN] ?
Data returned: 0

Data request: What value of measured inhibition at 12 µM is listed for O=C1NC(=O)C(c2ccccc2)(c2ccccc2)N1 [PHENYTOIN] ?
Data returned: 4

Data request: What value of measured inhibition at 12 µM is listed for CC(=O)CC(c1ccc([N+](=O)[O-])cc1)c1c(O)c2ccccc2oc1=O (stereo not given) [ACENOCOUMAROL] ?
Data returned: 49.8

Data request: What value of measured inhibition at 12 µM is listed for O=C(O)c1ccccc1Nc1cccc(C(F)(F)F)c1 [FLUFENAMIC ACID] ?
Data returned: 48.6

Data request: What value of measured inhibition at 12 µM is listed for N[C@@H](Cc1c[nH]c2ccccc12)C(=O)O [TRYPTOPHAN] ?
Data returned: 0

Data request: What value of measured inhibition at 12 µM is listed for CCCNC(=O)NS(=O)(=O)c1ccc(Cl)cc1 [CHLORPROPAMIDE] ?
Data returned: 19.2

Data request: What value of measured inhibition at 12 µM is listed for O=C(O)CCC(=O)c1ccc(-c2ccccc2)cc1 [FENBUFEN] ?
Data returned: 0

Data request: What value of measured inhibition at 12 µM is listed for CCN(CC)CCN1C(=O)CN=C(c2ccccc2F)c2cc(Cl)ccc21 [FLURAZEPAM] ?
Data returned: 0

Data request: What value of measured inhibition at 12 µM is listed for COc1ccc2cc([C@H](C)C(=O)O)ccc2c1 [NAPROXEN] ?
Data returned: 24.7
